test: Elimination of inhaled 14C-labeled NAC from the lungs in animal studies; type: in vivo; settings: inhaled or intranasal, 14C-labeled NAC administered by inhalation, animal studies (unpublished observation)
Readout name: half-life

- Compound: "CC(=O)N[C@@H](CS)C(=O)O [NAC, N-acetyl cysteine, reference compound]"
  Readout name: "half-life"
  Reported value: "~20 min"
